Target: EGFR (human) (UniProt P00533)
Sequence (P00533 whole entry, looked up): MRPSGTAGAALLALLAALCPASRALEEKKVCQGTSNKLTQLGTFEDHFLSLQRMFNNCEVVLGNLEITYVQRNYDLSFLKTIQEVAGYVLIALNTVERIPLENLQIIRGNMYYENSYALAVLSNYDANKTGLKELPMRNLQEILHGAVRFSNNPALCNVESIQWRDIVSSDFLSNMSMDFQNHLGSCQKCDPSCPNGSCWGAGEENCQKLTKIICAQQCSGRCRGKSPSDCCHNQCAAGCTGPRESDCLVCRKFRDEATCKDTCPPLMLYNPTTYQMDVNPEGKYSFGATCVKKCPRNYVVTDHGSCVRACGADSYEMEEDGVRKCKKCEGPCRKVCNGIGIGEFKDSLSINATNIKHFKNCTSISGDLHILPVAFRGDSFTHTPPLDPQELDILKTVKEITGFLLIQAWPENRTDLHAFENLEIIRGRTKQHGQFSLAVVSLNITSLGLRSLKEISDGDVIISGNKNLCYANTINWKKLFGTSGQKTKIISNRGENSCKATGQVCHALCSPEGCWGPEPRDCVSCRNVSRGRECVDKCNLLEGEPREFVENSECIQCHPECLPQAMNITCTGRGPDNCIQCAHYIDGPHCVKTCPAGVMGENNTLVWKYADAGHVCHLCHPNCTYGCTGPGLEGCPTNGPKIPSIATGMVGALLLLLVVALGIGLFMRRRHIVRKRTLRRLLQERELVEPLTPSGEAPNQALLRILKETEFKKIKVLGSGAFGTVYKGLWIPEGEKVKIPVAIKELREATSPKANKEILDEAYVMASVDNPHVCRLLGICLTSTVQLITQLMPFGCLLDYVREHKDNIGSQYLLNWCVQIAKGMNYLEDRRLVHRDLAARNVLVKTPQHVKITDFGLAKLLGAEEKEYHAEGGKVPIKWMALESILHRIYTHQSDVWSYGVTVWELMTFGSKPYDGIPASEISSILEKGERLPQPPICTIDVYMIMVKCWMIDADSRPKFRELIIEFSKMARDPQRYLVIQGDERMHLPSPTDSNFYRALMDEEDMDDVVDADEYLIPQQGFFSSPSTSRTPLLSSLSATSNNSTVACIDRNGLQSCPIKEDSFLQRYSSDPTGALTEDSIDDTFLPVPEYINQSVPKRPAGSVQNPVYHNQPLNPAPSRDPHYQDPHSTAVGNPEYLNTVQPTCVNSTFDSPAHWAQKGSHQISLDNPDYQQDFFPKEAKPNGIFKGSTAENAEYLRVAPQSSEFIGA
Conditions: a431
measuredProperty: IC50

>>> df
                                smilesentry      result
0    COc1cc2ncc(C#N)c(Nc3cccc(Br)c3)c2cc1OC      300 nM
1  CC(=O)Nc1cc(CN(C)C)c2ncc(C#N)c(Nc3cccc(Br)c3)c2c1   > 5 µg/mL
2  CCN1CCN(CC#CC(=O)Nc2ccc3ncc(C#N)c(Nc4cccc(Br)c4)c3c2)CC1      800 nM
3  CNC/C=C/C(=O)Nc1ccc2ncc(C#N)c(Nc3cccc(Br)c3)c2c1  > 10 µg/mL
